Measured values drawn from patent US20220144812A1 for this set.

- Tested on: H3K18Ac in HB-CLS-2 cells
- assay.info: H3K18AC in-cell western (ICW) assay
- Format: cell-based
- condition.context: H3K18Ac in-cell western, HB-CLS-2 cells; read-out: CREBBP ICW IC50
assay.endpoint: IC50 (µM)
State the answer as a number, implicitly in µM.

input: Provide one value: measured IC50 of CCn1ncc(CN(C)C(=O)c2cc(-c3cccc(Cl)c3)nc3ccc(NC)cc23)c1C [Compound 330]
output: 17

input: Look up and report measured IC50 for this entry: CCn1ncc(CN(C)C(=O)c2nc(-c3cccc(Cl)c3Cl)nc3ccc(Cl)cc23)c1C [Compound 259]
output: 0.18

input: Provide one value: measured IC50 of CCn1ncc(CN(C)C(=O)c2cc(-c3cn(Cc4ccc(OC)cc4)c(CN(C)C)n3)nc3ccc(Cl)cc23)c1C [Compound 239]
output: 20

input: Specify measured IC50 for CCn1ncc(CN(C)C(=O)c2cc(N3CCN(C(=O)OC(C)(C)C)CC3)nc3ccc(Cl)cc23)c1C [Compound 205] .
output: 20

input: // fetch IC50 given entry CCc1ccc2nc(-c3ccccc3Cl)nc(C(=O)N(C)Cc3cnn(CC)c3C)c2c1 [Compound 312]
output: 0.58

input: // Input: CCn1ncc(CN(C)C(=O)c2nc(-c3cc(C)cc(NCC(=O)NC)c3)nc3ccc(Cl)cc23)c1C [Compound 408] . Output its IC50 only.
output: 1.1

input: Return IC50 (reported value) for this compound: CCn1ncc(CN(C)C(=O)c2nc(-c3cc(OC)c4cn[nH]c4c3)nc3ccc(Cl)cc23)c1C [Compound 390]
output: 0.65

input: Give me measured IC50, please, for this compound: CCn1ncc(CN(C)C(=O)c2nc(-c3cc(C)nc(CNC)c3)nc3ccc(Cl)cc23)c1C [Compound 398]
output: 8.2

input: Give recorded IC50. CCc1cc(-c2nc(C(=O)N(C)Cc3cnn(CC)c3C)c3cc(Cl)ccc3n2)ccc1NC1CCOCC1 [Compound 415]
output: 0.24

input: Read off the recorded IC50 for CCn1ncc(CN(C)C(=O)c2cc(-c3cn(CCCNC(=O)OC(C)(C)C)cn3)nc3ccc(Cl)cc23)c1C [Compound 243]
output: 20

input: # return recorded IC50 for input CCc1noc(CN(C)C(=O)c2nc(-c3ccccc3Cl)nc3ccc(Cl)cc23)c1C [Compound 356]
output: 1.9

input: Please indicate IC50 recorded for CCn1ncc(CN(C)C(=O)c2cc(-c3ccc(NCCNC)c(C)n3)nc3ccc(COC)cc23)c1C [Compound 427]
output: 0.19

input: Answer with the recorded IC50 for the compound listed here: CCn1ncc(CN(C)C(=O)c2cc(-c3cccc(Cl)c3)nc3ccc(N(C)C)cc23)c1C [Compound 369]
output: 15

input: Please give the documented IC50 of CCn1ncc(CN(C)C(=O)c2cc(-c3cc(C)c(OCCNC)cn3)nc3ccc(Cl)cc23)c1C [Compound 410]
output: 6.1

* * *

Task for the reader: assign each of the following compounds its reported pIC50.
- assayed.system: EP300 (P300(1048-1664)) (Homo sapiens)
- Construct: P300(1048-1664)
- Sequence (Q09472 1048-1664): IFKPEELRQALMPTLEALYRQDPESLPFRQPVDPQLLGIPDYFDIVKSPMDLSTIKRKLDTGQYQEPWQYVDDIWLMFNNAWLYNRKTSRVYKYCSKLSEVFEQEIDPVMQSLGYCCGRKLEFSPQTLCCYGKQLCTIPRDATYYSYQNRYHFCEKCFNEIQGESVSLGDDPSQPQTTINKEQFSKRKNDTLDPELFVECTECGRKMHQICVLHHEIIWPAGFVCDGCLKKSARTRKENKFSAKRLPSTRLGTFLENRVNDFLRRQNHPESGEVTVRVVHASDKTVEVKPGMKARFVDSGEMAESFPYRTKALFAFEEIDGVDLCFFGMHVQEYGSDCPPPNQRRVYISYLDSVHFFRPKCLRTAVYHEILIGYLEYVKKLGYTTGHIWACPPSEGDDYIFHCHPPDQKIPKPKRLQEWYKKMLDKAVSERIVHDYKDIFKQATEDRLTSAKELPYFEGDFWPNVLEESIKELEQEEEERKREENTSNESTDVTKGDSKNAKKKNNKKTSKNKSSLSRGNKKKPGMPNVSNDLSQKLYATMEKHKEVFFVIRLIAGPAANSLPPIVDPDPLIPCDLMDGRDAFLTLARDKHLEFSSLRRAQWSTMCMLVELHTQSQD
- assay.info: Biochemical assay for EP300, SAMDI
- condition.context: EP300, SAMDI; read-out: EP300 Biochemistry IC50
Recall that pIC50 is obtained by taking minus log10 of the concentration measured in molar.

input: Supply reported pIC50 belonging to this compound: CCn1ncc(CN(C)C(=O)c2cc(-c3ccc(NC4CCNC4)c(C)n3)nc3ccc(Cl)cc23)c1C (stereo not shown)
output: 8.00

input: Tell me its pIC50 given CCn1ncc(CN(C)C(=O)c2cc(-c3ccc(NC4CN(CC(F)(F)F)C4)c(C)n3)nc3ccc(Cl)cc23)c1C as the entry.
output: 7.69

input: Look up and report measured pIC50 for this entry: CCn1ncc(CN(C)C(=O)c2nc(-c3cc(C)cc(NC4CNC(=O)C4)c3)nc3ccc(Cl)cc23)c1C (stereo not shown)
output: 7.58
